Target: OsWRKY34 (Oryza sativa, UniProt Q0JBA9 1-250)
Sequence (Q0JBA9 entry or part of it): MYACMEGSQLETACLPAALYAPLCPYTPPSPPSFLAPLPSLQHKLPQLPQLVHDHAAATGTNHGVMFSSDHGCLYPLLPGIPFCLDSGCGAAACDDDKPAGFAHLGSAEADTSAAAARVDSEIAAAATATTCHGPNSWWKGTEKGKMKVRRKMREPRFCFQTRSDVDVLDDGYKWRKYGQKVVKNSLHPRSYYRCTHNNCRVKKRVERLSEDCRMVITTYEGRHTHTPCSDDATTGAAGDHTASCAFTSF
Assay: protein-binding microarray (RPBM); PBS, 2% BSA, 51.3 ng/ul salmon testes DNA, 50 uM zinc acetate, 200 nM TF, 25 C, 1 h; high values mean tight binding
Conditions: protein: recombinant; tags: N-terminal polyhistidine and DsRed monomer fusion (pET32a); label: CyDye5-dUTP incorporated in the synthesized complementary strand; 3' TTTTT single-stranded linker to array surface; dsDNA, one strand shown
In all, about 68,000 sequences were measured (“fluorescence intensity (a.u.)”: median about 9,100, highest 2% from about 16,000 on). This excerpt belongs to a sample that is enriched for the highest values.
For each record, write down the corresponding binding signal.

Solved entries:
TGAGCCTTGCTCGTCGGCGGCGAGGTGGGGTGGGGCGGGGCGGAGTCACCTAGTGCAG 20800 fluorescence intensity (a.u.)
GGCGGCCAGATCCGGGGCTGGGGAGGCGACGGCGGCGGGGCGGAGTCACCTAGTGCAG 8710 fluorescence intensity (a.u.)
TGGGCTTGGTGGAGGTGGCGGGTTTGGAGGCGGAGGTGGCCGGAGTCACCTAGTGCAG 14400 fluorescence intensity (a.u.)
CCTCGCCGAAGCCTCTCTACCTCTGTGTGTCTCTCTCTCCCGGAGTCACCTAGTGCAG 8120 fluorescence intensity (a.u.)

Quick request: binding signal for each listed item, please.
1. TTACTTGTACTGTTTGACTATTCGTCTTATTCCAAAAAAACGGAGTCACCTAGTGCAG
2. CAGCAGCAGTGGTGGTGGTGGTTTTGGTAGTGGCTGGGAGCGGAGTCACCTAGTGCAG
3. ACTTTATTGTTTTTCTTCTTATTTTATTTCTCTGTTCTTTCGGAGTCACCTAGTGCAG
4. ATCTTTTTGTTGTCTTTGAATTCAGTCTGTTTTTCTCATTCGGAGTCACCTAGTGCAG
5. TTTTTATATGTTTGGTTCTTATGAGTTCCTAAGTGTGAAACGGAGTCACCTAGTGCAG
6. ACCACCACCCTGATGGATCTTGGCTCTAGCTCCTGGTTTTCGGAGTCACCTAGTGCAG

Out:
1. 8820 fluorescence intensity (a.u.)
2. 9780 fluorescence intensity (a.u.)
3. 10300 fluorescence intensity (a.u.)
4. 17900 fluorescence intensity (a.u.)
5. 8230 fluorescence intensity (a.u.)
6. 8110 fluorescence intensity (a.u.)

Field: binding signal. Fill in for each record below.
1. ACATTGTTCTCTCTTTTACGGCCTTTTTTTTTTCTGAATTCGGAGTCACCTAGTGCAG
2. ATATTCTCATTTTCAGTCTGTTGCACTAATTTTGCTATTTCGGAGTCACCTAGTGCAG
3. CGCCATCACTGCCAAGCTCGCCGGCTACATCGCCCGCGCCCGGAGTCACCTAGTGCAG
4. TCTCTTTTCTTTTCTTTCTTTTTATTTTGTTGTTCCTTTACGGAGTCACCTAGTGCAG

Out:
1: 17900 fluorescence intensity (a.u.); 2: 12800 fluorescence intensity (a.u.); 3: 8040 fluorescence intensity (a.u.); 4: 12600 fluorescence intensity (a.u.)

Please look at the items below and tell me binding signal for each one, in order.
1. CCCCATCAACCTCCTCTTCTTCTTCGCCTCGTCTCGTCTTCGGAGTCACCTAGTGCAG
2. GAGGCGGGTGGGCGAGCTCCGGCGGCGGCGGGGTGGCCTTCGGAGTCACCTAGTGCAG

Out:
1. 9670 fluorescence intensity (a.u.)
2. 15800 fluorescence intensity (a.u.)

# per-item lookup of binding signal; items listed below
1. TACCTGTTTGTTTTTAAGTTCAGATATTATATTACGTAACCGGAGTCACCTAGTGCAG
2. ACCATCTTTTAAATCAGACCTCTCACCAATTTTGATATTTCGGAGTCACCTAGTGCAG
3. ATCCCAAACACTCTCGCCTCGTCTCCTCTCACACCACACGCGGAGTCACCTAGTGCAG

Out:
1. 8930 fluorescence intensity (a.u.)
2. 8230 fluorescence intensity (a.u.)
3. 10500 fluorescence intensity (a.u.)

For each of the sequences below, note its binding signal.
1. TTGACGCCGTTGACTTTTTAGTACATGTTTGACCATTCGTCGGAGTCACCTAGTGCAG
2. GTAGTAGGTAGCAGCAGTCTCAAACATGTCTTCTGAGTAGCGGAGTCACCTAGTGCAG
3. TACGTTTCAGTTGTGCTTGTTCGGACCTTTCGATTTCTTTCGGAGTCACCTAGTGCAG
4. CCGCCGCTACTCTCCATCATTTCAGTTTTCTCTCGAGTCACGGAGTCACCTAGTGCAG
5. CTTTTGCACTCGAGATATTTCATCAGTTCTTGCCATTTCACGGAGTCACCTAGTGCAG

Out:
49900 fluorescence intensity (a.u.)
9420 fluorescence intensity (a.u.)
13900 fluorescence intensity (a.u.)
10200 fluorescence intensity (a.u.)
16500 fluorescence intensity (a.u.)

Please give binding signal for each item listed below.
1. TGTGGATGGCGGGGCGAGGCGGAATGGGGCGAATGCGGCGCGGAGTCACCTAGTGCAG
2. TACTTTATCCGCGGCGGGTAGCTGGGGAGGGAGGGGAGGCCGGAGTCACCTAGTGCAG
3. CCTGTAATACTTTTGTTAATTCGATCCTACTACATCTTTACGGAGTCACCTAGTGCAG
4. GGCGTTATATCTGGTTTTGTGGCTGAGGGAGGTAATTTAGCGGAGTCACCTAGTGCAG

Out:
8240 fluorescence intensity (a.u.)
22500 fluorescence intensity (a.u.)
10400 fluorescence intensity (a.u.)
11700 fluorescence intensity (a.u.)

I have 8 sequences here; please give me binding signal for each one.
1. CTCCATCGCTTCGCTCTTCGCCGGATCTAGCACCGACGGTCGGAGTCACCTAGTGCAG
2. TCTCTTTTCTCATTTATTCACTTGCCACATCATTTTTCATCGGAGTCACCTAGTGCAG
3. CCTCGACCTCTCGCTACTCCAGGCGCCGCCCCATCAGATGCGGAGTCACCTAGTGCAG
4. CGTTGTTTATCTTTTCTAATGCCATGTGTATATATGATTCCGGAGTCACCTAGTGCAG
5. GGAGGTGGGAGTGGGCAGTGGCTCGGCTCGTCGTCCTGGGCGGAGTCACCTAGTGCAG
6. ACTTGCCTTGTTTCTTGTTCTTGTTCATTTCGACCGTTGTCGGAGTCACCTAGTGCAG
7. ACCTTGGACAACTGACTTCTCTACAGACATTAACCTTTTTCGGAGTCACCTAGTGCAG
8. TTCTTCTTTTCTTTTTTTTTTGTTTTCTTCTCATTCTTCTCGGAGTCACCTAGTGCAG

Out:
1: 9000 fluorescence intensity (a.u.); 2: 8900 fluorescence intensity (a.u.); 3: 8200 fluorescence intensity (a.u.); 4: 10500 fluorescence intensity (a.u.); 5: 8780 fluorescence intensity (a.u.); 6: 17100 fluorescence intensity (a.u.); 7: 8730 fluorescence intensity (a.u.); 8: 10100 fluorescence intensity (a.u.)

In: API: value(readout= binding signal, system= OsWRKY34 (Oryza sativa, UniProt Q0JBA9 1-250), query= GGAGGTGGGGATGGTGGGAGGTTTTGGTTTGGTAAAATAGCGGAGTCACCTAGTGCAG )
Out: 19800 fluorescence intensity (a.u.)
